- System: EB2 (Burkitt's Lymphoma);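 note: after 72 h of two-drug dosing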
- measurement-protocol: Bliss excess, mean over the matrix (fraction); higher = more synergy
# Bliss excess listing for each entry below
Give the figure only, with no unit attached.

Here's what some known entries look like.
# molecule, target, Bliss excess
measured = [
    ("C[C@@H]1COCCN1c1cc(C2([S@](C)(=N)=O)CC2)nc(-c2ccnc3[nH]ccc23)n1 [AZD6738] + Nc1ccn([C@@H]2O[C@H](CO)[C@@H](O)C2(F)F)c(=O)n1 [Gemcitabine] (first compound max 10 µM, 7x7, partner max 0.3 µM)", "EB2 (Burkitt's Lymphoma)", 0.0068),
    ("CC1(C)CCC(CN2CCN(c3ccc(C(=O)NS(=O)(=O)c4ccc(NCC5CCOCC5)c([N+](=O)[O-])c4)c(Oc4cnc5[nH]ccc5c4)c3)CC2)=C(c2ccc(Cl)cc2)C1 [Venetoclax] + CS(=O)(=O)CCNCc1ccc(-c2ccc3ncnc(Nc4ccc(OCc5cccc(F)c5)c(Cl)c4)c3c2)o1 [Lapatinib] (first compound max 1 µM, 7x7, partner max 10 µM)", "EB2 (Burkitt's Lymphoma)", -0.039),
    ("N#Cc1cnc(Nc2cc(NC[C@H]3CNCCO3)c(C(F)(F)F)cn2)cn1 [SRA737] + O=c1[nH]cc(F)c(=O)[nH]1 [5-Fluorouracil] (first compound max 10 µM, 7x7, partner max 20 µM)", "EB2 (Burkitt's Lymphoma)", -0.0038),
]

Field: next molecule
Q. For the molecule CS(=O)(=O)CCNCc1ccc(-c2ccc3ncnc(Nc4ccc(OCc5cccc(F)c5)c(Cl)c4)c3c2)o1 [Lapatinib] + NC1(c2ccc(-c3nc4ccn5c(=O)[nH]nc5c4cc3-c3ccccc3)cc2)CCC1 [MK-2206] (first compound max 10 µM, 7x7, partner max 10 µM) , what Bliss excess is on record?
A. -0.0348
